- Method description: clinical
- Set-up: species or system human
- Details: human, in vivo, iv, 300 mg, CL
Positions of bridges follow the written chain, without caps; N, C: chain ends. Non-standard residues stand in square brackets, D forms with d. Residues, ends and D or L forms follow the SMILES beside them. *: point of attachment. X1 = NC[C@@H](CC(=O)*)c1cccc(Cl)c1; Dab = NCC[C@H](N)C(=O)O; Dap = NC[C@H](N)C(=O)O
Assay metric: clearance (mL/min)

{"Compound": "CC(C)C[C@@H]1NC(=O)[C@@H](Cc2ccccc2)NC(=O)[C@H](CCN)NC(=O)[C@@H](NC(=O)[C@H](CN)NC(=O)[C@@H](NC(=O)C[C@H](CN)c2cccc(Cl)c2)[C@@H](C)O)CCNC(=O)[C@H]([C@@H](C)O)NC(=O)[C@H](CCN)NC(=O)[C@H](CCN)NC1=O [SPR206] (X1-T[Dap][Dab][Dab][dF]L[Dab][Dab]T; lactam 3-C (inferred))", "Value observed": 70}

###

- Method description: clinical
- Details: human, in vivo, iv, 200 mg, Fe (fraction of dose recovered in urine as unchanged drug)
Positions of bridges follow the written chain, without caps; N, C: chain ends. Non-standard residues stand in square brackets, D forms with d. Residues, ends and D or L forms follow the SMILES beside them. *: point of attachment. X1 = NC[C@@H](CC(=O)*)c1cccc(Cl)c1; Dab = NCC[C@H](N)C(=O)O; Dap = NC[C@H](N)C(=O)O

{"Molecule": "CC(C)C[C@@H]1NC(=O)[C@@H](Cc2ccccc2)NC(=O)[C@H](CCN)NC(=O)[C@@H](NC(=O)[C@H](CN)NC(=O)[C@@H](NC(=O)C[C@H](CN)c2cccc(Cl)c2)[C@@H](C)O)CCNC(=O)[C@H]([C@@H](C)O)NC(=O)[C@H](CCN)NC(=O)[C@H](CCN)NC1=O [SPR206] (X1-T[Dap][Dab][Dab][dF]L[Dab][Dab]T; lactam 3-C (inferred))", "Reading unit": "%", "dose excreted": 36}

###

- Method description: clinical
- Design: species or system human
- Details: human, in vivo, iv, 100 mg, AUC0–inf
- Procedure: This was a single-center, phase 1, randomized, double-blind, placebo-controlled, first-in-human study to assess the safety, tolerability, and PK of SPR206 following SAD and MAD administrations (Fig. 7). […] Plasma and urine concentrations and PK parameters for SPR206 were summarized for each treatment using descriptive statistics. In the SAD/MAD study, geometric means were calculated for AUC and Cmax. […]
Positions of bridges follow the written chain, without caps; N, C: chain ends. Non-standard residues stand in square brackets, D forms with d. Residues, ends and D or L forms follow the SMILES beside them. *: point of attachment. X1 = NC[C@@H](CC(=O)*)c1cccc(Cl)c1; Dab = NCC[C@H](N)C(=O)O; Dap = NC[C@H](N)C(=O)O

{"Compound": "CC(C)C[C@@H]1NC(=O)[C@@H](Cc2ccccc2)NC(=O)[C@H](CCN)NC(=O)[C@@H](NC(=O)[C@H](CN)NC(=O)[C@@H](NC(=O)C[C@H](CN)c2cccc(Cl)c2)[C@@H](C)O)CCNC(=O)[C@H]([C@@H](C)O)NC(=O)[C@H](CCN)NC(=O)[C@H](CCN)NC1=O [SPR206] (X1-T[Dap][Dab][Dab][dF]L[Dab][Dab]T; lactam 3-C (inferred))", "AUC(0-inf) [ng·h/mL]": 20400}

###

- Method description: clinical
- Design: species or system human
- Details: human, in vivo, 100 mg, CL
Positions of bridges follow the written chain, without caps; N, C: chain ends. Non-standard residues stand in square brackets, D forms with d. Residues, ends and D or L forms follow the SMILES beside them. *: point of attachment. X1 = NC[C@@H](CC(=O)*)c1cccc(Cl)c1; Dab = NCC[C@H](N)C(=O)O; Dap = NC[C@H](N)C(=O)O

{"Molecule": "CC(C)C[C@@H]1NC(=O)[C@@H](Cc2ccccc2)NC(=O)[C@H](CCN)NC(=O)[C@@H](NC(=O)[C@H](CN)NC(=O)[C@@H](NC(=O)C[C@H](CN)c2cccc(Cl)c2)[C@@H](C)O)CCNC(=O)[C@H]([C@@H](C)O)NC(=O)[C@H](CCN)NC(=O)[C@H](CCN)NC1=O [SPR206] (X1-T[Dap][Dab][Dab][dF]L[Dab][Dab]T; lactam 3-C (inferred))", "clearance": "80 mL/min"}

###

- Method description: clinical
- Design: species or system human
- Details: human, in vivo, iv, 100 mg, AUC0–8
Positions of bridges follow the written chain, without caps; N, C: chain ends. Non-standard residues stand in square brackets, D forms with d. Residues, ends and D or L forms follow the SMILES beside them. *: point of attachment. X1 = NC[C@@H](CC(=O)*)c1cccc(Cl)c1; Dab = NCC[C@H](N)C(=O)O; Dap = NC[C@H](N)C(=O)O
Assay metric: AUC(0-t) (ng·h/mL)

{"Compound": "CC(C)C[C@@H]1NC(=O)[C@@H](Cc2ccccc2)NC(=O)[C@H](CCN)NC(=O)[C@@H](NC(=O)[C@H](CN)NC(=O)[C@@H](NC(=O)C[C@H](CN)c2cccc(Cl)c2)[C@@H](C)O)CCNC(=O)[C@H]([C@@H](C)O)NC(=O)[C@H](CCN)NC(=O)[C@H](CCN)NC1=O [SPR206] (X1-T[Dap][Dab][Dab][dF]L[Dab][Dab]T; lactam 3-C (inferred))", "Assay metric": "AUC(0-t)", "Value observed": 17300}

###

- Method description: clinical
- Design: species or system human
- Details: human, in vivo, 150 mg, AUC0–inf
Positions of bridges follow the written chain, without caps; N, C: chain ends. Non-standard residues stand in square brackets, D forms with d. Residues, ends and D or L forms follow the SMILES beside them. *: point of attachment. X1 = NC[C@@H](CC(=O)*)c1cccc(Cl)c1; Dab = NCC[C@H](N)C(=O)O; Dap = NC[C@H](N)C(=O)O
Assay metric: AUC(0-inf) (ng·h/mL)

{"Compound": "CC(C)C[C@@H]1NC(=O)[C@@H](Cc2ccccc2)NC(=O)[C@H](CCN)NC(=O)[C@@H](NC(=O)[C@H](CN)NC(=O)[C@@H](NC(=O)C[C@H](CN)c2cccc(Cl)c2)[C@@H](C)O)CCNC(=O)[C@H]([C@@H](C)O)NC(=O)[C@H](CCN)NC(=O)[C@H](CCN)NC1=O [SPR206] (X1-T[Dap][Dab][Dab][dF]L[Dab][Dab]T; lactam 3-C (inferred))", "Value observed": 56000}

###

- Method description: clinical
- Parameters: species or system human
- Details: human, in vivo, iv, 400 mg, CL
Positions of bridges follow the written chain, without caps; N, C: chain ends. Non-standard residues stand in square brackets, D forms with d. Residues, ends and D or L forms follow the SMILES beside them. *: point of attachment. X1 = NC[C@@H](CC(=O)*)c1cccc(Cl)c1; Dab = NCC[C@H](N)C(=O)O; Dap = NC[C@H](N)C(=O)O

{"Molecule": "CC(C)C[C@@H]1NC(=O)[C@@H](Cc2ccccc2)NC(=O)[C@H](CCN)NC(=O)[C@@H](NC(=O)[C@H](CN)NC(=O)[C@@H](NC(=O)C[C@H](CN)c2cccc(Cl)c2)[C@@H](C)O)CCNC(=O)[C@H]([C@@H](C)O)NC(=O)[C@H](CCN)NC(=O)[C@H](CCN)NC1=O [SPR206] (X1-T[Dap][Dab][Dab][dF]L[Dab][Dab]T; lactam 3-C (inferred))", "clearance [mL/min]": 61.7}

###

- Method description: clinical
- Details: human, in vivo, 200 mg, CLR (renal clearance)
- Method: Maximum plasma concentration (Cmax), area under the concentration-time curve from time zero to last measurable time point (AUC0–t), area under the concentration-time curve from time zero to infinity (AUC0–inf), area under the concentration-time curve from time zero to tau (AUC0–tau), time to maximum concentration (Tmax), terminal elimination rate constant (kel), terminal half-life (t1/2), terminal clearance (CL), and volume of distribution (Vz) were determined. […]
Positions of bridges follow the written chain, without caps; N, C: chain ends. Non-standard residues stand in square brackets, D forms with d. Residues, ends and D or L forms follow the SMILES beside them. *: point of attachment. X1 = NC[C@@H](CC(=O)*)c1cccc(Cl)c1; Dab = NCC[C@H](N)C(=O)O; Dap = NC[C@H](N)C(=O)O

{"Compound": "CC(C)C[C@@H]1NC(=O)[C@@H](Cc2ccccc2)NC(=O)[C@H](CCN)NC(=O)[C@@H](NC(=O)[C@H](CN)NC(=O)[C@@H](NC(=O)C[C@H](CN)c2cccc(Cl)c2)[C@@H](C)O)CCNC(=O)[C@H]([C@@H](C)O)NC(=O)[C@H](CCN)NC(=O)[C@H](CCN)NC1=O [SPR206] (X1-T[Dap][Dab][Dab][dF]L[Dab][Dab]T; lactam 3-C (inferred))", "CL renal (mL/min)": 29.5}

Reference for the values: paper PMC8448162
